assay: soluble on expression in E. coli; label from the status in PepcDB or PDB records
ASSAY METRIC: soluble on expression in E. coli

Worked cases, soluble on expression in E. coli given:
{"BIOSEQUENCE": "MAHHHHHHMYLHLIKNSTAKTPQLYTAKDNSKTAMHLLTRRAANANYTVNRWYLKEKVDSSNRMRLEGLYECVLCASCTGSCPQYWWNREHFLGPAVLLQSYRWLVEPLDRDFDERVRMFETGNLVNMCHNIFNCSITCPKFLNPGLASKEIKRLSSPSTKRVGPAIEMEPVTSGKEAGKRSLLQRL", "RECORDED VALUE": "soluble"}
{"BIOSEQUENCE": "NNMHHLAVVGARDSTSYTQQSLEFLLSNDKSKYLTIVSGLAQGADAMAHQIALKYNLPTIAVLAFGHQTHYPKSTLALRNKIEEKGLVISEYPPHTPIAKYRFPERNRIISGLSKGVLITEAKEQSGSHITIDFALEQNRNVYVLPGSMFNPMTKGNLLRIQEGAKVVLNANDIFEDYYI", "RECORDED VALUE": "not soluble"}
{"BIOSEQUENCE": "MDELSDIGDWSLIQSFLAVAETGSLSAAARQLDRSQPTLGRHVQALEQALGLSLFDRHARGLKLSADGARILPLAQQAHRAMTAISVTAAGQSQSLAGTVRITASVFASHHILPPILADIRAAEPAIELELVPSDTTENLLFRAADIAVRMYRPRQVDIVARHIGDVPLCACAATSYLERKGRPTRAEDLLDFDLVGYDADPIIVKTMQALGWPVTRHSFAMRCDNQSAYWQLIRAGCGIGFGQRSIVAADPLVEVLPFELPVPPLEMWLAAPQAMRLTPRIRRVWDLLAAGLLAAPL", "RECORDED VALUE": "not soluble"}
{"BIOSEQUENCE": "MASSLHSPGQAFRAALAKENPLQIVGAINANHALLAQRAGYQAIYLSGGGVAAGSLGLPDLGISTLDDVLTDIRRITDVCPLPLLVDADIGFGSSAFNVARTVKSIAKAGAAALHIEDQVGAKRCGHRPNKAIVSKEEMVDRIRAAVDARTDPNFVIMARTDALAVEGLEAALDRAQAYVDAGADMLFPEAITELSMYRRFADVAQVPILANITEFGATPLFTTDELRSAHVAMALYPLSAFRAMNRAAEKVYTVLRQEGTQKNVIDIMQTRNELYESINYYQFEEKLDALYRNKKSLEHHHHHH", "RECORDED VALUE": "soluble"}
{"BIOSEQUENCE": "MGSDKIHHHHHHMNIEKTRFCINRKIAPGLSIEAFFRLVKRLEFNKVELRNDMPSGSVTDDLNYNQVRNLAEKYGLEIVTINAVYPFNQLTEEVVKKTEGLLRDAQGVGARALVLCPLNDGTIVPPEVTVEAIKRLSDLFARYDIQGLVEPLGFRVSSLRSAVWAQQLIREAGSPFKVLLDTFHHHLYEEAEKEFASRIDISAIGLVHLSGVEDTRPTEALADEQRIMLSEKDVMQNYQQVQRLENMGYRGIYAFEPFSSQLASWSEAEIEEQINRSVSLLLQ", "RECORDED VALUE": "not soluble"}
{"BIOSEQUENCE": "MKPLSSQLNMKINDFYLPLLPVIGTGRLYITSKGHACHAYFREVSGHGIRFTLTYSGYEGRFWISEEQFIQWCQELFPYSESRLIPEDTIKLMILWVMQTALPEGDVSVDDVQFTMLNKDIYPVIENNNGENRLNVIILETTVQSLQYLINDNWQLVPHSNALFFDGYIVPGWTDYPVTELRVGDSLRLYHVDDSQERRCWIVINTPLATVNLSDNNLSVTDVLAADLLSALSNETVMNRIYCAIGTVHIDIHMLRNVKKDDIINSDGYHLFGGCQLIRNNTTIAYGSIVKINEDFYFTVSIVCD", "RECORDED VALUE": "soluble"}

Fill in the blank: the reported soluble on expression in E. coli of MSLTETQSLELAKELISRPSVTPDDRDCQKLMAERLHKIGFAAEEMHFGNTKNIWLRRGTKAPVVCFAGHTDVVPTGPVEKWDSPPFEPAERDGRLYGRGAADMKTSIACFVTACERFVAKHPNHQGSIALLITSDEEGDALDGTTKVVDVLKARDELIDYCIVGEPTAVDKLGDMIKNGRRGSLSGNLTVKGKQGHIAYPHLAINPVHTFAPALLELTQEVWDEGNEYFPPTSFQISNINGGTGATNVIPGELNVKFNFRFSTESTEAGLKQRVHAILDKHGVQYDLQWSCSGQPFLTQAGKLTDVARAAIAETCGIEAELSTTGGTSDGRFIKAMAQELIELGPSNATIHQINENVRLNDIPKLSAVYEGILVRLLAGNAVEGGSHHHHHH is ____.
soluble

Given the sequence MDIKVIREKLTLTTSITSESVAEYEHDVDECCRLLEHKLELEMEKKLQLSNRIDVVQSQVTELWDRVDKARRRESDISCRVTAWAQHLSEMMNEVKLKKAKMGTTMEISATLSAEIQESLDLLAEKRVIVQRMREEIDYRRHLHKQQLKDLKLDCDREEEKCEYWNDKSAEIEKVVEMLKEQRKSLGERVEEEKRMEQEQKKMLEELEMLLKKTGKKRQILDENANLVASFSSLTEESS , what is its reported soluble on expression in E. coli?
not soluble

So what's the measured soluble on expression in E. coli for this one? MGSDKIHHHHHHMPSIFEKYQLKQVINASGRMTALGVSTPRPEVIDAAMAGMNQYFEMKDLVNKTGEYIAKLLEVEGATVVSCASAGLAQSVAAVLVQDSDWLLENLHVTPIENNEIVLPKGHNVNFGAPVGTMVALGGGKLVEAGYANECSAAQLAAAITPRTAAILYIKSHHCVQKSMLSVEQAAVVARTHNLPLIVDAAAEEDLQCYYRVGADLVIYSGAKAIEGPTSGLVIGKTQYVEWVKRQSAGIGRAMKVGKEGIVGLTCAIELYLRAQKESGAEMVEKMAPFIDTLNTFNGVSARVVWDSAGRDIARTEIKFDEAVTGIATGELVDALKQGEYAIYFRGYKANEGIIEADVRSVDRAQLAIVARRIGEVINQEKQA
not soluble

If you can, please state the reported soluble on expression in E. coli value of MNAAEVIVYEHVNFGGKSFDATSDQPGAGDNLNDKISSIKVKSGTWRFYEYINYGGRYWDLGPGEYSSVESAGIPDNSISSFRQI .
soluble

Data request, read-out soluble on expression in E. coli, for MGSDKIHHHHHHMIPIEIDSGSGFCFGVVNAIRHAEKQLEKSSDKLYCLGDIVHNTLEVERLGKKGLETIDYDAFSRLRGAKVLLRAHGEPPEIYRMAGENGVTIIDATCPVVLRLQNKIKSRYEATRSLGAQVVIYGKRGHAEVNGLVGQTEGTAIVIESEEELDKIDYTRPVILFSQTTKSLEGFGQIIDSISTRMQPGVTFEHHDTICRQVANRIPHIGAFATAHELVFFVAGEKSSNGKVLFGHCLAANPRSIFISSPEVIVPDMLVPLPASIGICGATSTPRWQMEEVASHIKALL
not soluble

For MSLTADPPACTVPAAGVSSTHKLVNGGAEKIVFKIKSSNNNEYRIAPVFGFVDPSGSKDVVITRTAGAPKEDKLVVHFASAPADATDAQAAFVAVAPAGTVTIPMSATA , what is its reported soluble on expression in E. coli?
soluble

These data points were gathered from the DeepSol protein solubility set.
